I'd be grateful if you could share measured microsomal CLint for these entries.
- assay_procedure: Metabolic stability in rat liver microsomes assessed as intrinsic clearance
- Format: ADME, Microsome
- particulars: read-out: CLH
Give bare numbers, in µL/min/mg.

| compound | measurement_units | measured_number |
| --- | --- | --- |
| C[C@H]1CN(CC[C@H]2CC[C@H](NC(=O)N(C)C)CC2)CCc2ccc(Cl)cc21 | µL/min/mg | 59.7 |

Consider now this further compound.
Determine its reported microsomal CLint: COc1ccc2[nH]c([S+]([O-])Cc3ncc(C)c(OC)c3C)nc2c1 (configuration not stated) [OMEPRAZOLE]
193

---

- system: UniProt:P28223
- Sequence (P28223 whole entry): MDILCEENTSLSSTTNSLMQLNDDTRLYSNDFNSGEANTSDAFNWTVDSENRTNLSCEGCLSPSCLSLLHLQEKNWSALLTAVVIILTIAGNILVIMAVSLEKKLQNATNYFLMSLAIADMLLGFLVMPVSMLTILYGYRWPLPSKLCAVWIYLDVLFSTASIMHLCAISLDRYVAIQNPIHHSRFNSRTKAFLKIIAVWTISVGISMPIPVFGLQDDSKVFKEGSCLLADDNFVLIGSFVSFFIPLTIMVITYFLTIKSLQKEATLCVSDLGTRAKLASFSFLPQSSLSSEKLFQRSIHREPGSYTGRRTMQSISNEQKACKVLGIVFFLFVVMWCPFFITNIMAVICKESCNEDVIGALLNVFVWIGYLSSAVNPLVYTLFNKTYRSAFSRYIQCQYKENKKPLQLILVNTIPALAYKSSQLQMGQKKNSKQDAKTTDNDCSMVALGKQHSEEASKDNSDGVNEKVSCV
- assay_procedure: Displacement of [3H]ketanserin from recombinant human 5-HT2A receptor expressed in human HEK293 cells at 10 uM relative to control
- Format: cell-based
Short version: inhibition at least 70% is TRUE, less is FALSE.

| compound | qualitative_label |
| --- | --- |
| CCN(CC)C(=O)N[C@H]1CC[C@H](CCN2CCc3ccc(Cl)cc3[C@@H](C)C2)CC1 | TRUE |
| C[C@H]1CN(CC[C@H]2CC[C@H](NC(=O)Nc3ccccc3)CC2)CCc2ccc(Cl)cc21 | FALSE |
| C[C@H]1CN(CC[C@H]2CC[C@H](N3C(=O)[C@@H]4[C@@H]5CC[C@@H](C5)[C@@H]4C3=O)CC2)CCc2ccc(Cl)cc21 | TRUE |
| CCN(C)C(=O)N[C@H]1CC[C@H](CCN2CCc3ccc(Cl)cc3[C@@H](C)C2)CC1 | TRUE |
| C[C@H]1CN(CC[C@H]2CC[C@H](NC(=O)N(C)c3ccccc3)CC2)CCc2ccc(Cl)cc21 | FALSE |

Given the entry C[C@H]1CN(CC[C@H]2CC[C@H](NC(=O)N3CCCC3)CC2)CCc2ccc(Cl)cc21 , answer whether its inhibition meets or surpasses 70%.
TRUE

Given the entry C[C@H]1CN(CC[C@H]2CC[C@H](N3C(=O)CCC3=O)CC2)CCc2ccc(Cl)cc21 , answer whether its inhibition meets or surpasses 70%.
FALSE

Given the entry C[C@H]1CN(CC[C@H]2CC[C@H](N3C(=O)[C@@H]4[C@H](C3=O)[C@@H]3C=C[C@H]4C3)CC2)CCc2ccc(Cl)cc21 , answer whether its inhibition meets or surpasses 70%.
TRUE

Given the entry C[C@H]1CN(CC[C@H]2CC[C@H](NC(=O)C3CC3)CC2)CCc2ccc(Cl)cc21 , answer whether its inhibition meets or surpasses 70%.
FALSE

Given the entry C[C@H]1CN(CC[C@H]2CC[C@H](N3C(=O)c4ccccc4C3=O)CC2)CCc2ccc(Cl)cc21 , answer whether its inhibition meets or surpasses 70%.
FALSE
